B1: HDV Ribozyme (parent)
chain: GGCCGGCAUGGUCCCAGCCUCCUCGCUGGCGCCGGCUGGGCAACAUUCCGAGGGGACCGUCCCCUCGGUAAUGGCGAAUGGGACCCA

# Variants of: B1
# Test method notes: self-cleavage, relative activity (ratio to wild type); higher = more cleavage; co-transcriptional
# if value of self-cleavage reaches 0.2, tag Y; if it stays below, tag N

For orientation, consider the following solved cases.
{"columns": ["Mutant id", "Answer label"],
 "data": [
  ["C4U U72A", "Y"],
  ["C44G G68A", "Y"],
  ["C32G G76C", "Y"],
  ["C49A C84U", "Y"],
  ["G17C G68U", "Y"],
  ["U47A C58A", "Y"],
  ["G67C G82A", "N"],
  ["C7U C63G", "Y"],
  ["C13U U37C", "Y"],
  ["C48U A78U", "Y"]
]}

Incoming: Please check the record C7A G25U and state if its self-cleavage is at or above 0.2.
Outgoing: N

Incoming: Entry C7U C85G : is its self-cleavage no less than 0.2?
Outgoing: Y

Incoming: Check if self-cleavage >= 0.2 (inclusive). Item: A42U G82U
Outgoing: N

Incoming: Threshold query (self-cleavage >= 0.2) on C13G U20C
Outgoing: N

Incoming: Decide: is the reported value of self-cleavage for A43G A83G equal to or greater than 0.2?
Outgoing: Y

Incoming: API: above_or_equal(metric=self-cleavage, cutoff=0.2) for item C14U G29A
Outgoing: N
